Target: T1, recombinant soluble human CEA (extracellular domain, AA 1-687 of huCEA, C-terminal 6xHis) (human, UniProt P06731 35-687)
T1 construct: also called sCEA; soluble CEA
T1 sequence: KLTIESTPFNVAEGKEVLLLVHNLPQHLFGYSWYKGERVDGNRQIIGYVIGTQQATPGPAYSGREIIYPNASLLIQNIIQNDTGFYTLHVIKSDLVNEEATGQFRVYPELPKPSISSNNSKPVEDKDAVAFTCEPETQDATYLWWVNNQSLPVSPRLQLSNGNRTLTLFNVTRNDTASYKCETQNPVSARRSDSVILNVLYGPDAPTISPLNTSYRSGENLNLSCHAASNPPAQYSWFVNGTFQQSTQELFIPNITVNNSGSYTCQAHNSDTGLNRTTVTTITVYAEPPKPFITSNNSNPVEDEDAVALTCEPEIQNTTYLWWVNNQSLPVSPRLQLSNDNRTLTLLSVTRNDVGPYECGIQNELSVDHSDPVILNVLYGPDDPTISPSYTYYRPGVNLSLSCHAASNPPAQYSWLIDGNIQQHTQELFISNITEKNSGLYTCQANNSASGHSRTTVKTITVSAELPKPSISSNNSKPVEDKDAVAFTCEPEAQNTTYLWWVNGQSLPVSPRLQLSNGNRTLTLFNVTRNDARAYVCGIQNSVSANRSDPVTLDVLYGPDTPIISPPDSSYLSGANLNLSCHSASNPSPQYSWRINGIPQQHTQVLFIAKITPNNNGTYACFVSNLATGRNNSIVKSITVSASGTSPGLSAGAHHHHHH
Test: SPR; kinetics on huCEA, IgG format
Measured Attribute: koff
Hi, when you answer, please include the unit after the number. Thanks!

Worked examples follow.
Data request: Entry BGA6710 variant Q54E, Y57K (antibody, V domains shown, IgG format; both changes in the heavy chain) VH: QVQLVQSGAEVKKPGASVKVSCKASGYIFTSYYLHWVRQAPGQGLEWIGYINPETGKTSYAQKFQGRVTMTRDTSTSTVYMELSSLRSEDTAVYYCAREYGNYNYPLDYWGQGTLVTVSS VL: DIQMTQSPSSLSASVGDRVTITCRASENQYGYLAWYQQKPGKVPKLLIYNYKNLVEGVPSRFSGSGSGTDFTLTISSLQPEDVATYYCQHHLGTPYTFGQGTKVEIK : reported koff = ?
Data returned: 0.00026 s⁻¹

Data request: Entry BGA6710 variant L92E (antibody, V domains shown, IgG format; L92E in the light chain) VH: QVQLVQSGAEVKKPGASVKVSCKASGYIFTSYYLHWVRQAPGQGLEWIGYINPQTGYTSYAQKFQGRVTMTRDTSTSTVYMELSSLRSEDTAVYYCAREYGNYNYPLDYWGQGTLVTVSS VL: DIQMTQSPSSLSASVGDRVTITCRASENQYGYLAWYQQKPGKVPKLLIYNYKNLVEGVPSRFSGSGSGTDFTLTISSLQPEDVATYYCQHHEGTPYTFGQGTKVEIK : reported koff = ?
Data returned: 0.000188 s⁻¹

Data request: Entry BGA6710 variant Y57D (antibody, V domains shown, IgG format; change in the heavy chain) VH: QVQLVQSGAEVKKPGASVKVSCKASGYIFTSYYLHWVRQAPGQGLEWIGYINPQTGDTSYAQKFQGRVTMTRDTSTSTVYMELSSLRSEDTAVYYCAREYGNYNYPLDYWGQGTLVTVSS VL: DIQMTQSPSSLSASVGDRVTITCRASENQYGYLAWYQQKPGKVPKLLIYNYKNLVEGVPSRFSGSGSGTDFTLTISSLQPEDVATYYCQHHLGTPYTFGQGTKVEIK : reported koff = ?
Data returned: 0.000195 s⁻¹

Data request: Entry BGA6710 variant Q54E, Y57E (antibody, V domains shown, IgG format; both changes in the heavy chain) VH: QVQLVQSGAEVKKPGASVKVSCKASGYIFTSYYLHWVRQAPGQGLEWIGYINPETGETSYAQKFQGRVTMTRDTSTSTVYMELSSLRSEDTAVYYCAREYGNYNYPLDYWGQGTLVTVSS VL: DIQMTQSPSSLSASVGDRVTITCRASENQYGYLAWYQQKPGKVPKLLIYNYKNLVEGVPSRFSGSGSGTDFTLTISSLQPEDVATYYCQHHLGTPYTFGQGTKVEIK : reported koff = ?
Data returned: 0.00025 s⁻¹

Data request: Entry BGA6710 variant L92E, Y57K (antibody, V domains shown, IgG format) VH: QVQLVQSGAEVKKPGASVKVSCKASGYIFTSYYLHWVRQAPGQGLEWIGYINPQTGKTSYAQKFQGRVTMTRDTSTSTVYMELSSLRSEDTAVYYCAREYGNYNYPLDYWGQGTLVTVSS VL: DIQMTQSPSSLSASVGDRVTITCRASENQYGYLAWYQQKPGKVPKLLIYNYKNLVEGVPSRFSGSGSGTDFTLTISSLQPEDVATYYCQHHEGTPYTFGQGTKVEIK : reported koff = ?
Data returned: 0.000177 s⁻¹

Next:
Data request: Entry BGA6710 (antibody, human IgG1, V domains shown, BGA2433 with W33Y (VH) and T51Y (VL); wild-type human IgG1 format) VH: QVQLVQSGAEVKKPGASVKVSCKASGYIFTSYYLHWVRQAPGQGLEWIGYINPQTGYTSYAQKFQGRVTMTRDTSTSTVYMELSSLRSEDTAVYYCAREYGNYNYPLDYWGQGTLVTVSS VL: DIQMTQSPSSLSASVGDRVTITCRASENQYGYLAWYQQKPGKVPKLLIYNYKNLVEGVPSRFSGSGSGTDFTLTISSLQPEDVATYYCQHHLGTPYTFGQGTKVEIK : reported koff = ?
Data returned: 0.000169 s⁻¹
